- System: Mutant 6 plants
- Protocol Text: Cross-resistance testing (glasshouse dose response), Mutant 6
- Assay type: in vivo, Zea mays
- Study Conditions: pre-emergence spray, assessed after four weeks growth
Recorded Endpoint: resistance group, Dose Response

For COc1cc(Cl)nc(NC(=O)NS(=O)(=O)c2ccccc2C(=O)O)n1 [Chlorimuron, chlorimuron] the compound record lists resistance group, Dose Response as Zero

For CC(C)C1(C)N=C(c2nc3ccccc3cc2C(=O)O)NC1=O (stereo not shown) [Imazaquin, imazaquin] the compound record lists resistance group, Dose Response as Weak

For COc1nc(C)nc(NC(=O)NS(=O)(=O)c2ccccc2Cl)n1 [Chlorsulfuron, chlorsulfuron] the compound record lists resistance group, Dose Response as Zero
